Each entry below carries its recorded koff.
TESTED_SYSTEM: T1, GST-tagged hNav1.7-loopA3 (human, UniProt Q15858 269-339)
T1 construct: monomeric GST-tagged peptide; also called hNav1.7-loopA3-GST; Nav1.7-loopA3-GST; not shown: GST tag
T1 sequence (Q15858 269-339 limits assumed): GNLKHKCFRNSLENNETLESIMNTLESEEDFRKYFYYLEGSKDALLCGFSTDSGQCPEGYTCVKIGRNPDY
ASSAY_EXPLANATION: Biacore SPR, antigen on CM5 chip, mAb in flow
MEASURED_PROPERTY: koff (s⁻¹)

>  <BINDER>
4F7 (antibody, human IgG1, V domains shown) VH: QVQLQESGPGLVKPSQTLSLTCTVSGGSITTSFYAWSWIRQPPGKGLEWMGVIAYDGRTFYSPSLKSRTHISRDTSKNQFSLQLSSVTPEDTAVYYCARGGVVAWSYDYWGQGTQVTVSS VL: SYELTQSPSVSVALRQTAKITCGGNDIGSKSTQWYQQKAGQAPVLVIYADSRRPSGIPERFSGSNSGNTATLTISGAQAEDEADYYCQVWDSRADAAVFGGGTHLTVLG

>  <VALUE_OBSERVED>
1.84e-05

$$$$
>  <BINDER>
2F12 (antibody, human IgG1, V domains shown) VH: QVQLVESGGGLVQPGGSLRLSCAASGFTFSSYWMYWVRQAPGKGLEWVSAINTGGGSTYYADSVKGRFTISRDNAKNTLYLQMNSLKPEDTALYYCARGPGYSGKYIEGWAYWGQGTQVTVSS VL: DIVMTQSPRSVTASVGEKVFINCKSSQSVVSESNQRSYLNWYQQRPGQSPRLLIYYASTQESGLPDRFSGSGSTTDFTLTISSVQPEDAAVYYCQQAYSAPYSFGSGTRLEIK

>  <VALUE_OBSERVED>
1.08e-05

$$$$
>  <BINDER>
3E1 (antibody, human IgG1, V domains shown) VH: EVQVQESGGGLVQPGGSLRLSCAASGFTFSSYWMYWVRQAPGKGLEWVSAINTGGGSTYYADSVKGRFTISRDNAKNTLYLQMNSLKPEDTALYYCARGPGYSGKYIEGWAYWGQGTQVTVSS VL: DIVMTQSPSSVTASVGEKVTINCKSSQSVVSGSKQKSYLNWYQQRPGQSPRLLIYYASTQESGIPDRFSGSGSTTDFTLTISSVQPEDAAVYYCQQAYSAPYSFGSGTRLEIK

>  <VALUE_OBSERVED>
0.000356

$$$$

Entry source: patent US20160207996A1
